# ASSAY_DETAILS: Phase I 14-day twice-daily pharmacokinetics
# ASSAY_CONTEXT: human, plasma, oral, 40 mg, AUClast, healthy volunteers, 40 mg twice daily, Day 14, mean, N = 4
QUANTITY_NAME: AUC(0-t) (ng·h/mL)
One number for each entry, in ng·h/mL.

Query block: # lookup: AUC(0-t) of O=S1(=O)c2ccc(F)cc2Oc2cc(OCC(F)(F)F)ccc21 [CX157]
Result block: 602

###

# ASSAY_DETAILS: Plasma and brain CX157 concentrations after oral dosing in rats
# ASSAY_CONTEXT: male, Sprague-Dawley, rat, brain, po, 1 mg/kg
QUANTITY_NAME: concentration at 8 h (ng/mL)
One number for each entry, in ng/mL.

Query block: # lookup: concentration at 8 h of "O=S1(=O)c2ccc(F)cc2Oc2cc(OCC(F)(F)F)ccc21"
Result block: 76.5
